Quick list: RP-LC retention time per entry.
assay: gradient 5% acetonitrile 3 min, to 50% in 2 min, to 85% in 15 min, held 3 min, 100 µL/min; conditions: column: Zorbax Extend-C18 2.1 x 50 mm; eluents: water / acetonitrile, 0.1% formic acid
Please give a number only; it is taken to be in s.

Completed entries (count: 5):
compound=CCOc1ccc(NC(=O)CSC2CCCCC2)cc1 observation_type="RP-LC retention time" measured=975
compound=O=C(CCC(=O)OCC(=O)c1ccccc1)Nc1ccc2ccccc2c1 observation_type="RP-LC retention time" measured=891
compound="CNC(=O)N1CC(c2nc(-c3ccc(F)cc3)no2)C2(CCOCC2)C1 (centres undefined)" observation_type="RP-LC retention time" measured=723
compound="COc1cccc(C(O)CN2CCN(c3cccc(C)c3C)CC2)c1 (centres undefined)" observation_type="RP-LC retention time" measured=614
compound=CCC(=O)N(C1CCOCC1)C1CCN(S(=O)(=O)c2cc(C)ccc2C)CC1 observation_type="RP-LC retention time" measured=908

For CCN1c2ccc(C)cc2C(=O)NC12CCN(C(=O)c1ccccc1F)CC2 , what is its reported RP-LC retention time?
806

For CCOC(=O)c1cc2n(n1)CC(C)(C(=O)NCc1ccc(C)cc1)N(C1CC1)C2=O (centres undefined) , what is its reported RP-LC retention time?
786

For Cn1nc(C(=O)N2CCN(c3cc(-c4ccccc4)ncn3)CC2)ccc1=O , what is its reported RP-LC retention time?
547

For CCCCC(=O)N1CCN(C2CCN(CCC(C)C)C2=O)CC1 (centres undefined) , what is its reported RP-LC retention time?
585

---

test: gradient 5% acetonitrile 3 min, to 50% in 2 min, to 85% in 15 min, held 3 min, 100 µL/min; conditions: column: Zorbax Extend-C18 2.1 x 50 mm; eluents: water / acetonitrile, 0.1% formic acid
OBSERVATION_TYPE: RP-LC retention time (s)
Please give a number only; it is taken to be in s.

molecule=Cc1nc2ccc(N)nc2nc1C observation_type="RP-LC retention time" measured=594
molecule=O=C(Cc1nnc2cc(-c3nc(C4CC4)no3)ccn12)N1CCOCC1 observation_type="RP-LC retention time" measured=642
molecule=COc1ccc(CN2CC3(CCN(S(=O)(=O)c4ccc(F)cc4)CC3)C2=O)cc1 observation_type="RP-LC retention time" measured=904
molecule="CC(C)(C)CC(=O)N1CCCC(CCc2nnc(C3CCOCC3)o2)C1 (configuration not stated)" observation_type="RP-LC retention time" measured=758
molecule=CN(CCc1noc(-c2ccc(C(=O)N3CCCC3)cc2)n1)C(=O)c1ccccc1Br observation_type="RP-LC retention time" measured=736

For Cc1ccc(-c2cn3c(CC(=O)Nc4ccc(C#N)cc4)csc3n2)cc1C , what is its reported RP-LC retention time?
821

For Cc1nc(C)c(-c2nnc(NC(=O)c3ccc(=O)[nH]n3)o2)s1 , what is its reported RP-LC retention time?
578

---

Quick list: RP-LC retention time per entry.
experiment: gradient 5% acetonitrile 3 min, to 50% in 2 min, to 85% in 15 min, held 3 min, 100 µL/min; details: column: Zorbax Extend-C18 2.1 x 50 mm; eluents: water / acetonitrile, 0.1% formic acid
Please give a number only; it is taken to be in s.

Completed entries (count: 4):
compound=CCc1noc(-c2cccnc2N2CCCN(Cc3cccc(F)c3)CC2)n1 measured=660
compound=COCCNC(=O)C1CCN(C(=O)c2cc3ccsc3n2Cc2cccc(OC)c2)CC1 measured=770
compound=Cc1ccc(C)c(NC(=O)Nc2c(-c3ccc(F)cc3)nc3ccccn23)c1 measured=697
compound="O=C(Nc1ccc2c(c1)OCO2)C1CCN(C(=O)C2Sc3ccccc3NC2=O)CC1 (stereo unspecified)" measured=736

For Cc1ccc(C(C)C)cc1NC(=O)Nc1ccc([N+](=O)[O-])cc1 , what is its reported RP-LC retention time?
1160

For CCOCCCNC(=O)c1nnc(-c2ccc(S(=O)(=O)N3CCC(C)CC3)cc2)o1 , what is its reported RP-LC retention time?
924

---

experiment: gradient 5% acetonitrile 3 min, to 50% in 2 min, to 85% in 15 min, held 3 min, 100 µL/min; settings: column: Zorbax Extend-C18 2.1 x 50 mm; eluents: water / acetonitrile, 0.1% formic acid
OBSERVATION_TYPE: RP-LC retention time (s)
Please give a number only; it is taken to be in s.

Completed entries (count: 3):
compound=COc1ccc(OC)c(CNC(=O)Cc2nnc(-c3ccccn3)o2)c1 measured=687
compound=O=C(c1ccc(F)cc1)N1CCC(n2nc(-c3ccsc3)ccc2=O)CC1 measured=816
compound=CCOC(=O)C1CCN(C(=O)Cc2csc(NC(=O)c3ccco3)n2)CC1 measured=649

For CN1C(=O)c2cccn2CC1CNC(=O)NCc1ccccc1 (stereo not drawn) , what is its reported RP-LC retention time?
646

For Cc1ccc(N2C(=O)SC(N(CC(N)=O)c3ccc(C)cc3)C2=O)cc1 (stereo not drawn) , what is its reported RP-LC retention time?
782

For O=C(Cn1nc2c3ccc(Cl)cc3ncn2c1=O)NCc1ccccc1 , what is its reported RP-LC retention time?
716

For O=C(c1ccc(Cl)s1)N1CCCCC1c1nncn1CC1CC1 (stereo not drawn) , what is its reported RP-LC retention time?
800

For Cc1cc(N2CCN(C)CC2)nc2ccc(NC(=S)NCCN3CCc4ccccc4C3)cc12 , what is its reported RP-LC retention time?
538

For CCc1cc(C2CCCN2Cc2ccc(OC)c(O)c2)on1 (stereo not drawn) , what is its reported RP-LC retention time?
588

For O=C(NCc1cccnc1Oc1ccccc1)c1cnn2cccnc12 , what is its reported RP-LC retention time?
695

For O=C(Nc1ccc2c(c1)OCCO2)c1ccc(-c2ccnc(N3CCCC3)n2)cc1 , what is its reported RP-LC retention time?
768

For CCc1noc(NC(C)=O)c1-c1ccc(C)c(S(=O)(=O)N2CCCC2)c1 , what is its reported RP-LC retention time?
801

For O=C1C(c2cccnc2)N(CCCc2ccccc2)C(=O)CN1c1ccccc1 (stereo not drawn) , what is its reported RP-LC retention time?
776

---

assay: gradient 5% acetonitrile 3 min, to 50% in 2 min, to 85% in 15 min, held 3 min, 100 µL/min; conditions: column: Zorbax Extend-C18 2.1 x 50 mm; eluents: water / acetonitrile, 0.1% formic acid
Quick list: RP-LC retention time per entry.
Please give a number only; it is taken to be in s.

Completed entries (count: 2):
molecule=CCOc1cc(=O)n2c(c1C(=O)Nc1ccc(C#N)cc1)CCCC2 measured=708
molecule="CCCN(CCC)C1CCc2ccc(O)cc2C1 (stereo not drawn)" measured=640

// next entry
For COc1cccc(-c2noc3ncnc(N4CCN(c5ccccn5)CC4)c23)c1 , what is its reported RP-LC retention time?
660

---

assay: gradient 5% acetonitrile 3 min, to 50% in 2 min, to 85% in 15 min, held 3 min, 100 µL/min; details: column: Zorbax Extend-C18 2.1 x 50 mm; eluents: water / acetonitrile, 0.1% formic acid
Field: label. Allowed values: Satisfied (RP-LC retention time < 800 s) or Not satisfied (RP-LC retention time >= 800 s).

Dear colleague, could you confirm whether RP-LC retention time of C=CCNC(=O)C1CCCN(S(=O)(=O)c2ccc(OC)c(OC)c2)C1 (stereo not drawn) falls below 800 s? Thanks.
Satisfied

Dear colleague, could you confirm whether RP-LC retention time of Cc1ccccc1-c1noc(-c2nc(-c3ccncc3)no2)n1 falls below 800 s? Thanks.
Not satisfied

Dear colleague, could you confirm whether RP-LC retention time of COC(=O)c1cccc(N2C=C(C#N)S(=O)(=O)c3ccc(C)cc32)c1 falls below 800 s? Thanks.
Not satisfied

Dear colleague, could you confirm whether RP-LC retention time of Cc1cccn2c(NC(=O)c3ccc(Br)cc3)c(-c3ccccc3)nc12 falls below 800 s? Thanks.
Satisfied

Dear colleague, could you confirm whether RP-LC retention time of Cn1cccc1Cc1nnc(SCC(=O)N2CCCc3ccccc32)n1C falls below 800 s? Thanks.
Satisfied

Dear colleague, could you confirm whether RP-LC retention time of Cn1cc(CCNS(=O)(=O)c2ccc(F)cc2Cl)c2cccnc21 falls below 800 s? Thanks.
Satisfied

Dear colleague, could you confirm whether RP-LC retention time of CC(C)N1CC(CNC(=O)c2ccc(Cl)s2)C2(CCCCC2)C1 (stereo not drawn) falls below 800 s? Thanks.
Satisfied

---

assay: gradient 5% acetonitrile 3 min, to 50% in 2 min, to 85% in 15 min, held 3 min, 100 µL/min; conditions: column: Zorbax Extend-C18 2.1 x 50 mm; eluents: water / acetonitrile, 0.1% formic acid
Bucketed by reported RP-LC retention time, buckets being 0: < 800 s; 1: ≥ 800 s and < 900 s; 2: ≥ 900 s

Take a look at these entries with their results.
compound=CCN1CCN(c2nccc(-c3cnc4nc(-c5ccc(Cl)cc5)nn4c3C)n2)CC1 answer_label=2
compound=O=C(NCc1ccccc1F)c1nc(N2CCOCC2)c2ccccc2n1 answer_label=0
compound=O[C@@H](c1cc(C(F)(F)F)nc2c(C(F)(F)F)cccc12)[C@@H]1CCCCN1 answer_label=1
compound="Cc1cccc(-c2noc(-c3nnn4c3COC(c3ccc(F)cc3)C4)n2)c1 (stereo not given)" answer_label=2
compound=CCc1nccn1Cc1nc(-c2ccc(C)c(C)c2)no1 answer_label=0

Entry Cc1cc2nc3sc(C(=O)NCCCN4CCN(C)CC4)cc(=O)n3c2cc1C belongs to which category?
0

Entry O=C1NCCN2CC3(CCN(C(=O)Nc4ccccc4)CC3)CC12 (stereo not given) belongs to which category?
0

Entry COc1ccccc1-c1csc(-c2nnn(-c3ccc(F)cc3)c2N)n1 belongs to which category?
2

Entry Cc1ccc(C(=O)Nc2ccc(S(N)(=O)=O)cc2)cc1Br belongs to which category?
0
